Numbers sourced from PubChem BioAssay (NCI).

tested on: HOP-62 NSCLC; assay: NCI tumour cell line growth inhibition, 48 h
TGI below 40 µM gives criterion not met; TGI at or above it gives criterion met.

>>> qualitative_label("O=C1CC(c2ccsc2)n2cccc21 (stereo not given)")
"criterion met"
>>> qualitative_label("COc1c(OC)c(OC)c2c(=O)cc(-c3ccc(OC(C)C)cc3)oc2c1OC")
"criterion not met"
>>> qualitative_label("O=C1OC(=O)C23CSCC12C1C=CC3O1 (stereo not given)")
"criterion met"
>>> qualitative_label("CC(C)=Cc1cc(C)c2ccc(C)c3c2c1C(C)=C(O)C3=O")
"criterion met"
>>> qualitative_label("c1cc2cc3c4c5c(cc6ccc7cc8cc9c%10c8c8c7c6c5c8c5c%10c(c1C9N1CCOCCOCCOCCOCCOCC1)c2c45)C3 (stereo not given)")
"criterion met"
>>> qualitative_label("COc1cccc(C(C#N)NNC(=O)c2c(Cl)c(Cl)c(Cl)c(Cl)c2-c2nc3ccc(C(=O)c4ccccc4)cc3[nH]2)c1O (stereo not given)")
"criterion not met"
>>> qualitative_label("COc1ccc(-c2cc3ccccc3[nH]c2=O)cc1OC")
"criterion met"
>>> qualitative_label("CCCC1=C(OC)C(=O)c2c(C)cc(Cl)nc2C1=O")
"criterion not met"
>>> qualitative_label("COc1ccc(Nc2ncnc3ccc(-c4cncc(NS(C)(=O)=O)c4)cc23)cc1Cl")
"criterion not met"

----------
Reported TGI by item:
test system: SF-295 CNS; assay: NCI tumour cell line growth inhibition, 48 h
quantity.name: TGI

>>> recorded_result("COc1cc(S(=O)(=O)Nc2ccc(-c3csc(N4C(=O)C(Cl)C4c4ccccc4O)n3)cc2)ccc1Cl (centres undefined)")
"> 100 µM"
>>> recorded_result("COc1cc2c3c(n(C)c(=O)c2cc1OC)-c1cc2c(cc1/C3=C\\CCCCCBr)OCO2")
"> 100 µM"
>>> recorded_result("c1cc2cc3c4c5c(cc6ccc7cc8cc9c%10c8c8c7c6c5c8c5c%10c(c1C9N1CCOCCOCCOCCOCCOCC1)c2c45)C3 (centres undefined)")
"> 100 µM"
>>> recorded_result("CN(C)c1ccc(/C=c2/c3ccccc3n3c2cc(/C=C/c2ccccc2)[n+]3C)cc1")
"0.944 µM"
>>> recorded_result("Cc1ccc(-n2nncc2[Si](C)(C)C)s1")
"> 100 µM"
>>> recorded_result("OCCCCC#Cc1ccccc1C#Cc1cccnc1")
"60.4 µM"
>>> recorded_result("N#CC1=C(N)NC(N2CCOCC2)=NC12Nc1ccccc1O2 (centres undefined)")
"> 100 µM"
>>> recorded_result("CC(C)(C)c1ccc(C2CC(=O)C3=C(C2)Nc2ccccc2N(C(=O)c2ccccc2Cl)C3c2ccc(F)cc2)cc1 (centres undefined)")
"> 100 µM"
>>> recorded_result("COc1cc(C2c3cc4c(cc3OC(O)C2C)OCO4)cc(OC)c1OC (centres undefined)")
"> 48.8 µM"
>>> recorded_result("COc1cc(Cl)c(CC(=O)c2c[nH]c3ccccc23)cc1OC")
"> 68.3 µM"
>>> recorded_result("O=C1CCCCC/C1=C\\c1cccc(F)c1")
"> 100 µM"
>>> recorded_result("C/C(=N\\Nc1nc2ccccc2[nH]1)c1ncccn1")
"> 100 µM"
>>> recorded_result("Cc1cc2c(c(C(=O)NCC(=O)O)c1)Oc1c(cc(C)cc1C(=O)NCC(=O)O)S2")
"> 100 µM"
>>> recorded_result("COc1ccc(NC(=O)CC(=O)N/N=C(\\C)c2cc3ccccc3oc2=O)cc1")
"> 100 µM"
>>> recorded_result("CC(OP(=O)(O)O)C(N)C(=O)O (centres undefined)")
"> 100 µM"
>>> recorded_result("[N-]=[N+]=Nc1nc2ccccc2c(N=[N+]=[N-])c1Cl")
"> 100 µM"
>>> recorded_result("O=c1cc(N2CCOCC2)n2c(ccc3ccccc32)n1")
"> 100 µM"
>>> recorded_result("CN(C)CCN1C(=O)c2cccc3c(/C=C/CN4C(=O)c5cccc6cccc(c56)C4=O)ccc(c23)C1=O")
"> 100 µM"
>>> recorded_result("CC(C)C[C@H](NC(=O)Cn1cccc(CNC(=O)c2ccccc2)c1=O)B(O)O")
"2.24 µM"
>>> recorded_result("Cc1cn(C2CC(COCc3ccccc3)N(CCO[Si](C)(C)C(C)(C)C)O2)c(=O)[nH]c1=O (centres undefined)")
"29.9 µM"
>>> recorded_result("COc1cccc2c1OC1c3ccccc3OCC1(O)C2 (centres undefined)")
"> 100 µM"
>>> recorded_result("O=C1N2CCC[C@H]2CS1(=O)=O")
"> 100 µM"
>>> recorded_result("O=C1OC(=O)C23CSCC12C1C=CC3O1 (centres undefined)")
"> 100 µM"
>>> recorded_result("CC(C)[C@H](C)/C=C/[C@@H](C)C1CC[C@H]2[C@@]34C=C[C@]5(C[C@@H](O)CC[C@]5(C)[C@H]3CC[C@]12C)OO4 (some centres undefined)")
"> 100 µM"
>>> recorded_result("Nc1ccc2c(=O)cc(-c3ccc(Br)s3)[nH]c2n1")
"> 31.9 µM"
>>> recorded_result("CCOC(=O)c1c(-c2ccccc2)[n+](=O)c2cc(F)c(F)cc2n1[O-]")
"3.84 µM"
>>> recorded_result("CCC(C)(O)c1cn(-c2ccc(Cl)cc2)nn1 (centres undefined)")
"> 100 µM"
>>> recorded_result("Cc1cc2nc3ccccc3n2c2ccccc12")
"> 10 µM"
>>> recorded_result("O=c1[nH]cc(N=Cc2cc(Cl)ccc2O)c(=O)[nH]1")
"42.1 µM"
>>> recorded_result("Oc1cccc2c(Br)ccnc12")
"> 100 µM"
>>> recorded_result("COC(=O)CC1(O)C=CC(=O)C=C1")
"17.7 µM"
>>> recorded_result("CCCC(O)c1cn(-c2cccc(S(=O)(=O)O)c2)nn1 (centres undefined)")
"> 100 µM"
>>> recorded_result("CCC1CCCCN1CC(C(C)=O)C(c1ccccc1)c1c(O)c2ccccc2oc1=O (centres undefined)")
"> 100 µM"
>>> recorded_result("CC(=O)OCC1OC(n2c(=O)[nH]c(=O)c3n[nH]nc32)C(OC(C)=O)C(OC(C)=O)C1OC(C)=O (centres undefined)")
"> 100 µM"

----------
test system: SF-539 CNS; experiment: NCI tumour cell line growth inhibition, 48 h
quantity.name: TGI

>>> recorded_result("CCCCCCCCCCCNC=O")
"> 100 µM"
>>> recorded_result("CCCC(O)c1cn(-c2cccc(S(=O)(=O)O)c2)nn1 (configuration not stated)")
"> 100 µM"
>>> recorded_result("COc1ccc(CSC2=C(C#N)C(=O)NC3(CCCCC3)S2)cc1")
"> 100 µM"
>>> recorded_result("Nc1nc(Cl)nc2c1ncn2C1OC(CO)C(O)C1F (configuration not stated)")
"7.48 µM"
>>> recorded_result("c1ccc2c(Nc3ncco3)cccc2c1")
"> 10 µM"
>>> recorded_result("COc1ccc(-n2c(N)c(C#N)c(C#N)c2-c2ccco2)cc1")
"> 100 µM"
>>> recorded_result("CCc1ccc2oc(=O)ccc2c1")
"> 100 µM"
>>> recorded_result("O=c1cc(-c2ccccc2)oc2c1ccc1[nH]c3ccccc3c(=O)c12")
"> 100 µM"
>>> recorded_result("O=Nc1c(-c2c(O)[nH]c3ccc(I)cc23)[nH]c2ccccc12")
"81.5 µM"
>>> recorded_result("c1cc2cc3c4c5c(cc6ccc7cc8cc9c%10c8c8c7c6c5c8c5c%10c(c1C9N1CCOCCOCCOCCOCCOCC1)c2c45)C3 (configuration not stated)")
"> 100 µM"
>>> recorded_result("CC(C)=Cc1cc(C)c2ccc(C)c3c2c1C(C)=C(O)C3=O")
"79.5 µM"
>>> recorded_result("Cc1cc(Cl)cc2c1NC(=O)C2(O)CC(=O)c1ccc(Br)cc1 (configuration not stated)")
"> 100 µM"

----------
system: DMS 114 small cell lung; assay: NCI tumour cell line growth inhibition, 48 h
Quick reference for TGI among some compounds
quantity.name: TGI

>>> recorded_result("CCC1=C(C[C@H]2NCCc3cc(OC)c(OC)cc32)C[C@H]2c3cc(OC)c(OC)cc3CCN2C1")
"0.0598 µM"
>>> recorded_result("CCOC(=O)c1sc2c(C(=O)OCC)n3cc(C)cc(C)c3c2c1O")
"> 100 µM"
>>> recorded_result("CC1=C(CO)C(=O)O[C@@H]([C@@H](C)[C@H]2CC[C@H]3[C@@H]4C[C@H]5O[C@]56[C@@H](O)C=CC(=O)[C@]6(C)[C@H]4CC[C@]23C)C1")
"1.95 µM"
>>> recorded_result("O=C1C(Cl)=C(Cl)C(=O)N1c1ccc(Cl)c(Cl)c1Cl")
"> 100 µM"
>>> recorded_result("COC(=O)C(=O)C(C(=O)C(=O)Nc1ccccc1[N+](=O)[O-])c1nc2ccc([N+](=O)[O-])cc2[nH]c1=O (stereo unspecified)")
"> 100 µM"
>>> recorded_result("CC(=O)OCC1OC(n2c(=O)[nH]c(=O)c3n[nH]nc32)C(OC(C)=O)C(OC(C)=O)C1OC(C)=O (stereo unspecified)")
"> 100 µM"
>>> recorded_result("COC(=O)/C(C#N)=C1\\CCC(OC)N1C (stereo unspecified)")
"> 100 µM"
>>> recorded_result("Cc1ccc(N2C(=O)C3CSCN3C2=O)cc1 (stereo unspecified)")
"> 100 µM"
>>> recorded_result("C/C=C(\\NC(=O)C(CCCCN)NC(=O)C(C)NC(=O)C1CSC(C)C(NC(=O)C2CSCC(NC(=O)C(C)NC(=O)C(N)C(C)CC)C(=O)NC(CCCCN)C(=O)NC(Cc3ccccc3)C(=O)NC(CC(C)C)C(=O)N2)C(=O)N2CCCC2C(=O)NCC(=O)N1)C(=O)NCC(=O)NC1CSCC2NC(=O)C(Cc3ccc(O)cc3)NC(=O)C(CSC=CNC2=O)NC(=O)C(CC(N)=O)NC(=O)C(Cc2ccccc2)NC1=O (stereo unspecified)")
"> 100 µM"
>>> recorded_result("CCCC(O)c1cn(-c2cccc(S(=O)(=O)O)c2)nn1 (stereo unspecified)")
"> 100 µM"
>>> recorded_result("CCC1CCCCN1CC(C(C)=O)C(c1ccccc1)c1c(O)c2ccccc2oc1=O (stereo unspecified)")
"> 100 µM"
